Field: Ki. System: the protein given by its sequence. Provenance: assorted publications.
Target sequence: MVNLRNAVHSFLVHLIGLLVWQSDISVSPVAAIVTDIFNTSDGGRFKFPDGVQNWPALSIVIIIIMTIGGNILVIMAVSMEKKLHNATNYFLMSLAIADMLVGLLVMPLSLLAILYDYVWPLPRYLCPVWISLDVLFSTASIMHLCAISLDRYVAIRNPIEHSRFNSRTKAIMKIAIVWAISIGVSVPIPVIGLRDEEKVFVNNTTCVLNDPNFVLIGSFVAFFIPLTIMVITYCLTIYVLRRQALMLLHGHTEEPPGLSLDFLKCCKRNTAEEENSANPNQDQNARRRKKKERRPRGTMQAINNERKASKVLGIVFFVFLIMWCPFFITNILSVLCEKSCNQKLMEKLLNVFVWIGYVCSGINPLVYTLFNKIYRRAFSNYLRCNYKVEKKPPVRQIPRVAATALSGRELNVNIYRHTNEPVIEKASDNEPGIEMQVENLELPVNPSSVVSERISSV
Supply the numeric figure in nM, leaving out any unit text.

Check out these entries, answers already filled in.
Cc1ccccc1CN[C@@H](C)Cn1ccc2ccc3ncccc3c21 | 171
CC(C)(C)OC(=O)N1CCCC1CNC1CCC(c2cc(F)ccc2F)(S(=O)(=O)c2ccc(Cl)cc2)CC1 (stereo not given) | 516
O=C(NC/C=C/CN1CCN(c2cccc(Cl)c2Cl)CC1)c1ccc(-c2cccc(=O)[nH]2)cc1 | 10.6
O=C1CC(CN2CCN(c3ccccn3)CC2)Cc2ccccc21 (racemic) | 3310
Nc1nc(SCCN2CCN(Cc3ccccc3Cl)CC2)nc(N)c1Cc1ccccc1 | 11.9

API: the following record is the query input.
[Q] Give the protein given by its sequence Ki for `c1ccc(Cn2cc3c(n2)CCNCC3)cc1`
[A] 2700

====

Field: pKi. System: 5-hydroxytryptamine receptor 2C (Homo sapiens, UniProt P28335). Provenance: assorted publications.
Target: 5-hydroxytryptamine receptor 2C (Homo sapiens, UniProt P28335)
Sequence (P28335 whole entry): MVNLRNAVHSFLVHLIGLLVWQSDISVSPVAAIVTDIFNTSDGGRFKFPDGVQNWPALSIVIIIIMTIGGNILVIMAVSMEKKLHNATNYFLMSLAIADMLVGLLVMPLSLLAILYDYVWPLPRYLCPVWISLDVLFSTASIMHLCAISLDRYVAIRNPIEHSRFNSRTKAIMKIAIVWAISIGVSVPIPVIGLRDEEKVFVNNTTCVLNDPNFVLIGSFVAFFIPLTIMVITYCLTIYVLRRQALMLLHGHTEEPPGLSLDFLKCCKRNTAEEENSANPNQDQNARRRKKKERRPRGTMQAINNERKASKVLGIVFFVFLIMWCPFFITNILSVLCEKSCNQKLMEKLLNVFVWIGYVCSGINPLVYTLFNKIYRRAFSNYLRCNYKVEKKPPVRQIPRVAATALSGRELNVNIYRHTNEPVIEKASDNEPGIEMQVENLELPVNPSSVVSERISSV
Expect pKi as a plain number equal to -log10 of the molar concentration.

Check out these entries, answers already filled in.
O=C(NCCC(O)CN1CCN(c2cccc(Cl)c2Cl)CC1)c1ccc(-c2ccccn2)cc1 (configuration not stated) | 6.94
CN(C)C[C@@H]1C[C@H]2c3ccccc3Oc3ccc(Br)cc3[C@H]2O1 | 8.22
COc1cc(OC)c(C2NCCc3c2[nH]c2ccc(F)cc32)cc1OC (configuration not stated) | 6.17
O=C(CCCN1CCC(c2noc3cc(F)ccc23)CC1)c1cc2c3c(c1)CCN3C(=O)CC2 | 6.21

[Q] Can you share its pKi? I mean this compound: `Cn1ccc(C(=O)N2CCN(CC(=O)c3ccc(F)cc3)CC2)n1`
[A] 5.85

====

Field: pKi. System: the protein given by its sequence. Provenance: assorted publications.
Target sequence: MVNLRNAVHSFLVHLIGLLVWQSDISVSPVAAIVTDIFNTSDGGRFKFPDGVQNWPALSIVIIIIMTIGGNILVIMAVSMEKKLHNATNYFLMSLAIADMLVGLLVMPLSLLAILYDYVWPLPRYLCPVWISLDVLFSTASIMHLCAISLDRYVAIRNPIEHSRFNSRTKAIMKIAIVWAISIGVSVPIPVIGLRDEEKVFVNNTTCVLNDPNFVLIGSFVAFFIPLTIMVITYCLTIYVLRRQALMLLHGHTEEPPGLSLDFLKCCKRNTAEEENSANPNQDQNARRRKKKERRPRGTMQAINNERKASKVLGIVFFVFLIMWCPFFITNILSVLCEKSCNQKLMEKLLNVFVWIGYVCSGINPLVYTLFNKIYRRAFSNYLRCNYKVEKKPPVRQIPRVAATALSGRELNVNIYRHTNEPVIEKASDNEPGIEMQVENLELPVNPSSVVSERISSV
pKi: −log10 of the molar value.
Rule: pKi under 7 gives False, otherwise True.

These recorded examples may help you get a feel for the data.
COc1ccc(N2CC=C(c3cccc(Cl)c3)C2=O)cc1OCCN1CCC(C)CC1 | True
COc1ccc2c(c1)CC(CN1CCC(c3noc4cc(F)ccc34)CC1)CC2=O (single isomer, unassigned; (+)) | False
Cc1ncccc1Oc1ccc(NC(=O)N2CCc3c(Cl)cccc32)cn1 | True

[Q] Item `Fc1ccc(-c2c3c(nn2C2CCC2)CCNCC3)cc1` with pKi of 7 or above?
[A] True

[Q] Entry `COc1ccc(NC(=O)Nc2ccnc3ccccc23)cc1Cl` please
[A] True

====

Molecular target: 5-hydroxytryptamine receptor 2C (Homo sapiens, UniProt P28335)
Sequence (P28335 whole entry): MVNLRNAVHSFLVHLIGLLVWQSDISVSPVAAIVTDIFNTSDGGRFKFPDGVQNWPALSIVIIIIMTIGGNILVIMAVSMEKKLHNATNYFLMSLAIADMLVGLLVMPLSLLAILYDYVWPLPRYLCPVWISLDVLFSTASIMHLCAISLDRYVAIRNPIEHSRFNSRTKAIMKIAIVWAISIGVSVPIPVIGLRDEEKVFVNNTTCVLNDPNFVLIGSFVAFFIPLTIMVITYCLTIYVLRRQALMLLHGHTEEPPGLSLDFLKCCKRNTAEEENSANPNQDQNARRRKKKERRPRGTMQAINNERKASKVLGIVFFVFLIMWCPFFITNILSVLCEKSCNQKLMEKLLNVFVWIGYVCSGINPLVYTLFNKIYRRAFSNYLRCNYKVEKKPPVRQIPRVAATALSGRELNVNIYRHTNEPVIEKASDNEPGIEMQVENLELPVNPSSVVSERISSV
Field: Ki. System: 5-hydroxytryptamine receptor 2C (Homo sapiens, UniProt P28335). Provenance: assorted publications.
Supply the numeric figure in nM, leaving out any unit text.

Nc1cc(F)ccc1C(=O)CCCN1CC[C@@H]2[C@H](C1)c1cccc3c1N2CCO3 | 664
COc1ccccc1N1CCN(CCCCCC(=O)NCc2ccccc2-c2ccccc2Cl)CC1 | 70
O=C(c1cc2ncccn2n1)N1CCN(CCc2ccc(F)cc2F)CC1 | 1360

[Q] Can you share its Ki? I mean this compound: `COc1ccc(-n2ccn(-c3cccc(F)c3)c2=O)cc1OCCN1CCCCC1`
[A] 6.31

[Q] Entry `O=C1N(c2ccc(OCCN3CCCCC3)nc2)CCN1c1ccc(Cl)c(Cl)c1` please
[A] 25.1

[Q] Entry CN1CCN(CC2C[C@@H]3c4ccccc4Cc4ccccc4[C@H]3O2)CC1 (stereo not given in full) please
[A] 677

[Q] Entry `Cc1ccc2on(C[C@@H]3C[C@H]4c5ccccc5Oc5ccc(Br)cc5[C@H]4O3)c2c1` please
[A] 58

[Q] Entry `COc1ccc(N2CC=C(c3ccc(Cl)c(Cl)c3)C2=O)cc1OCCN1CCCCC1` please
[A] 0.794

[Q] Entry `CSc1cc2c(cc1Br)N(C(=O)Nc1cccnc1)CC2` please
[A] 2

[Q] Entry `C[C@H](Nc1nc(N)nc(NCCc2ccccn2)n1)c1ccc(F)cc1` please
[A] 160

====

Field: Ki. System: 5-hydroxytryptamine receptor 2C (Homo sapiens, UniProt P28335). Provenance: assorted publications.
Supply the numeric figure in nM, leaving out any unit text.

Check out these entries, answers already filled in.
COc1ccc(N2CCN(c3ccc(Cl)c(Cl)c3)C2=O)cc1OCCN1CCOCC1 | 3.16
CN(C)CC1C[C@@H]2c3ccccc3Oc3ccccc3[C@H]2O1 (stereo not given in full) | 31
COc1ccc(N2Cc3cc(C)cc(C)c3C2=O)cc1OCCN1CCC(C)CC1 | 3.16

API: the following record is the query input.
[Q] Give 5-hydroxytryptamine receptor 2C (Homo sapiens, UniProt P28335) Ki for `COc1ccc(F)cc1[C@H]1C[C@@H]1CNCCCOc1ccc2ccc(=O)[nH]c2c1`
[A] 305

====

Target: 5-hydroxytryptamine receptor 2C (Homo sapiens, UniProt P28335)
Sequence (P28335 whole entry): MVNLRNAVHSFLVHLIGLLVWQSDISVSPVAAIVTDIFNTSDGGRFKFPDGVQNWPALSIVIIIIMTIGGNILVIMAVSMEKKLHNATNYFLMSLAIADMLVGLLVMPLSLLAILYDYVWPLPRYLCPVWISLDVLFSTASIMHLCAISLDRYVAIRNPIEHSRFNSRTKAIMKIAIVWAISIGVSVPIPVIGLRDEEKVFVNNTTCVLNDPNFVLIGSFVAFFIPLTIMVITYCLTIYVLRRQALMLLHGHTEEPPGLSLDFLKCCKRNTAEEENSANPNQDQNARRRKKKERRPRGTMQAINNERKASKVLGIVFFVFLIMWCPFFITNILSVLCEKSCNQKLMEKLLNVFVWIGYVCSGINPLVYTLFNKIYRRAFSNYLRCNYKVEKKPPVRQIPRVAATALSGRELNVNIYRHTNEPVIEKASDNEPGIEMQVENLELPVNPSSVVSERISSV
Field: pKi. System: 5-hydroxytryptamine receptor 2C (Homo sapiens, UniProt P28335). Provenance: assorted publications.
Expect pKi as a plain number equal to -log10 of the molar concentration.

Check out these entries, answers already filled in.
O=C(NCCCCN1CCN(c2cnc3ccccc3c2)CC1)c1cc2ccccc2cn1 | 6.32
COc1ccc(Cc2c(N)nc(SCCN3CCN(Cc4ccc(C)cc4)CC3)nc2N)cc1 | 6.52
CCOc1ccccc1Cc1c(N)nc(SCCN2CCN(Cc3cccc(C(F)(F)F)c3)CC2)nc1N | 8.04
Cc1cc2c(cc1C(F)(F)F)N(C(=O)Nc1ccc(CCc3ccccn3)nc1)CC2 | 8.50
CC(C)(C)c1cc2c(cc1Cl)N(C(=O)Nc1cccnc1)CC2 | 7.70
Cc1cc2c(cc1Cl)N(C(=O)Nc1ccc(OCc3cccnc3)nc1)CC2 | 7.60
COc1ccc(Cl)cc1[C@H]1C[C@@H]1CNCCCOc1ccc2ccc(=O)[nH]c2c1 | 6.22
CCc1cc2c(cc1C(F)(F)F)N(C(=O)Nc1ccc(Oc3cccnc3C)nc1)CC2 | 8.60

[Q] Can you share its pKi? I mean this compound: `O=C(Nc1cccnc1)N1CCc2cc(C(F)(F)F)ccc21`
[A] 7.50

[Q] Entry COc1ccc(N2CCC(c3ccc(OC)c(OCCN4CCCCC4)c3)C2=O)cc1Cl (configuration not stated) please
[A] 7.70

[Q] Entry `COc1ccc(N2Cc3cc(F)cc(C(F)(F)F)c3C2=O)cc1OCCN1CCC(C)CC1` please
[A] 9.40

[Q] Entry `Clc1ccc(-c2noc3c2CCNCC3)cc1` please
[A] 5.96

[Q] Entry `COc1ccc(CCN(CCCc2cccc(I)c2)CCc2ccc3c(c2)OCO3)cc1OC` please
[A] 6.81

[Q] Entry `CSc1ccc(NC(=O)Nc2ccnc3ccccc23)cc1` please
[A] 7.50

[Q] Entry `O=C(CCCN1CC[C@@H]2[C@H](C1)c1cccc3c1N2CCN3)c1ccc(F)cc1` please
[A] 6.15

[Q] Entry `c1ccc(-c2c3c(nn2-c2ccccc2)CCNCC3)cc1` please
[A] 5.05

[Q] Entry `Cc1ccc(-c2noc3c2CCNCC3)cc1` please
[A] 7.70

[Q] Entry COc1ccc(N2Cc3cc(Cl)cc(Cl)c3C2=O)cc1OCCN1CCCCC1C (configuration not stated) please
[A] 8.00
